Measured TGI of individual entries
- Tested on: RPMI-8226 leukemia
- Experiment: NCI tumour cell line growth inhibition, 48 h

Example entries and their recorded answers appear below.
Cc1cc(CC(O)c2ccc(Cl)c(Cl)c2)nc(=O)[nH]1 (configuration not stated) ... > 100 µM
CCn1c(-c2nonc2N)nc2c(C#CC(C)(C)O)nc(OC[C@H](N)c3ccccc3)cc21 ... 14 µM
COc1ccc(C(C)=O)cc1N1C(=O)C2C(C1=O)C1(c3ccccc3)C(=O)C2(c2ccccc2)C(c2ccc(C)cc2)=C1c1ccc(C)cc1 (configuration not stated) ... > 100 µM
O=S1(=O)C[C@H](O)[C@H](O)CS1 ... > 100 µM
CC(C)N(C(=O)C12C3C4C5(C#N)C3C1(C#N)C5C42I)C(C)C (configuration not stated) ... > 66.6 µM

Give recorded TGI. CC(O)CCC(=O)c1ccoc1 (configuration not stated)
7900 µM

---

Measured TGI of individual entries
- System: IGROV1 ovarian
- Experiment: NCI tumour cell line growth inhibition, 48 h

Example entries and their recorded answers appear below.
CN=c1nc2sc3c(c2c(NC(=S)NC)s1)CCCC3 ... > 100 µM
CCc1cc2c(oc3cc4ccccc4cc32)c(=O)[nH]1 ... > 10 µM
O=C(Nc1ccc(Cl)cc1F)c1ccccc1O ... 64.3 µM
CC(C)=CC/C=C(/C)[C@H]1CC[C@]2(C)[C@@H]1CC[C@@H]1[C@@]3(C)CCCNC(C)(C)[C@@H]3CC[C@]12C ... 3.72 µM

State recorded TGI with IGROV1 ovarian, entry `CN(C)CCCNC(=O)c1cc2[nH]c3c(cnc4ccc([N+](=O)[O-])cc43)c(=O)c2n1C` , no comment.
27.7 µM

State recorded TGI with IGROV1 ovarian, entry `CCCn1c2ccccc2c2ccc3c(c21)C(=O)C=CC3=O` , no comment.
> 10 µM

---

- Tested on: MALME-3M melanoma
- Experiment: NCI tumour cell line growth inhibition, 48 h
Measured GI50 of individual entries

Give recorded GI50. `Cn1c2ccccc2c2c3c(c4c5cc(Br)ccc5n(C)c4c21)C(=O)N(O)C3=O`
0.494 µM

Give recorded GI50. `CCN(CC)CCOc1ccc(-c2nc3cc(Cl)ccc3s2)cc1`
1.45 µM

Give recorded GI50. `COc1cc(N(CCC#N)CCC#N)ccc1/C(N=Nc1ccc([N+](=O)[O-])cc1)=N/NC(=O)c1cc(Br)ccc1O`
44.2 µg/mL

Give recorded GI50. `O=C1/C(=C/c2ccc(Br)cc2)COc2ccc(O)c(O)c21`
1.11 µM

Give recorded GI50. `N#CC(=C1C=CC(=NO)C=C1)c1ccccc1`
4.92 µM

---

Measured log10(TGI) of individual entries
- Test system: LOX IMVI melanoma
- Experiment: NCI tumour cell line growth inhibition, 48 h
Recall that a logarithmic scale is used here: each number is log10 of TGI in µM.

Clc1nc2ccccc2nc1CI ... 0.52
O=C(CNc1ccc(Cl)cc1)Nc1ccc(-c2nc3ccccc3s2)cc1 ... 0.47
CCOC(=O)CCCn1c(SC)nc2[nH]cc(-c3ccccc3)c2c1=O ... 1.41
CC(C)c1ccc2c(c1)CC[C@@H]1[C@@](C)(C(=O)O)CCC[C@]21C ... 1.23

Give recorded log10(TGI). `CC(=O)c1ccc(NCc2cc(O)ccc2O)cc1`
1.87

Give recorded log10(TGI). `COc1cc(C#CC(=O)OC/C=C/c2ccc3c(c2)OCO3)cc(OC)c1OC`
1.67

Give recorded log10(TGI). CCN(CC)c1ccc2c(c1)OC(N)=C(C#N)C2c1cc(OC)c2c(c1)OCO2 (stereo unspecified)
0.59

Give recorded log10(TGI). `NC(=O)NC1C(c2ccccc2)=C1c1ccccc1`
1.58

Give recorded log10(TGI). `N#CC(=C1C=CC(=NO)C=C1)c1ccccc1`
0.80

Give recorded log10(TGI). `C=C(CNCc1ccccc1)c1ccc(C(=O)Nc2ccccc2N)cc1`
0.95

Give recorded log10(TGI). `COc1ccc(N2C(=O)C(=O)N(c3ccccc3[N+](=O)[O-])C2=S)cc1`
1.51

Give recorded log10(TGI). Cc1ccc(NC(=O)C(=O)C(C(=O)c2ccc3ccccc3c2)C2OC(=O)c3ccccc32)cc1C (stereo unspecified)
1.52

Give recorded log10(TGI). `CCn1c(-c2nonc2N)nc2c(C#CC(C)(C)O)nc(OC[C@H](N)c3ccccc3)cc21`
0.90

Give recorded log10(TGI). `O=c1cnn(C/C=C/CBr)c(=O)[nH]1`
1.83

Give recorded log10(TGI). `Cc1cc([N+](=O)[O-])ccc1Nc1cccc(Cl)c1C`
1.53

Give recorded log10(TGI). `CCN(CC)CCC(=O)/C=C/c1ccccc1`
0.85

---

Measured TGI of individual entries
- Test system: RXF 393 renal
- Experiment: NCI tumour cell line growth inhibition, 48 h

C=C1C(=O)OC2CCN3CC=C(COC(=O)C(C)(O)C4(CO4)C1C)C23 (centres undefined) ... > 100 µM
CCOC(=O)c1c(-c2ccc(OC)cc2)c(C#N)c(=S)n(C2OC(COC(C)=O)C(OC(C)=O)C(OC(C)=O)C2OC(C)=O)c1-c1ccccc1 (centres undefined) ... > 100 µM
COc1cc(C(=O)n2c3ccc(Br)cc3c3nc4ccccc4nc32)cc(OC)c1OC ... 66.4 µM

Turning now to a further record.
Give recorded TGI. `O=c1cc(N2CCOCC2)[nH]c(=O)n1-c1ccc(F)cc1`
> 100 µM

---

- System: UACC-257 melanoma
- Experiment: NCI tumour cell line growth inhibition, 48 h
Assay Readout: GI50

Example entries and their recorded answers appear below.
CCn1c(-c2nonc2N)nc2c(C#CC(C)(C)O)nc(OC[C@H](N)c3ccccc3)cc21 ... 5.18 µM
Clc1nc2ccccc2nc1CI ... 12.9 µM
COc1ccc(CN2C(=O)/C(=C\C(=O)c3ccc(OCCN4CCCCC4)cc3)c3ccccc32)cc1 ... 16.8 µM
COc1cnc2c(c1)C(=O)c1c-2n(CCCNC(C)C)c(=O)c2cc(Cl)ccc12 ... 12.1 µM

Turning now to a further record.
Give recorded GI50. `O=C(Cc1ccc(/C=C/C(=O)c2ncc[nH]2)cc1)Nc1cc(F)c(F)c(F)c1`
4.49 µM

---

- Tested on: DU-145 prostate
- Experiment: NCI tumour cell line growth inhibition, 48 h
Measured TGI of individual entries

Example entries and their recorded answers appear below.
CN1CCN(C(=O)CCNC(=O)Cc2ccc(C(=O)c3ccccc3)cc2)CC1 ... > 100 µM
C[N+](CCCl)(CCCl)Cc1cccc2cccc([N+](=O)[O-])c12 ... > 100 µM
CC(C)CCN1c2nc(Nc3cc(F)c(O)c(F)c3)ncc2N(C)C(=O)C1C (stereo unspecified) ... 77.5 µM
CCN(CC)CCC(=O)/C=C/c1ccccc1 ... > 73.9 µM
CCCCCCCCCCCCOC1C(C(COC2OC(C3COC(C)(C)O3)C3OC(C)(C)OC23)NC(=O)Nc2ccc(C(=O)O)cc2)OC2OC(C)(C)OC21 (stereo unspecified) ... 9.79 µM

Turning now to a further record.
Give recorded TGI. `COc1ccc(N2C(=O)C(=O)N(c3ccccc3[N+](=O)[O-])C2=S)cc1`
> 100 µM

---

- Test system: LOX IMVI melanoma
- Experiment: NCI tumour cell line growth inhibition, 48 h
Assay Readout: TGI

CO/N=C/c1cc(OC)c(OC)c(OC)c1 ... > 100 µM

Give recorded TGI. C=C1C(=O)C[C@H]2C(=C)C(=O)O[C@@H]2C2C1CC[C@@]2(C)O (stereo partly specified)
68.8 µM

Give recorded TGI. `[N-]=[N+]=NC12CC3C4CC5CC3C(C1)C(C5)C4C2`
> 100 µM

Give recorded TGI. C=C1C(=O)OC2CCN3CC=C(COC(=O)C(C)(O)C4(CO4)C1C)C23 (stereo unspecified)
> 100 µM

Give recorded TGI. `Cn1cc(CO)c2c1C(=O)C=C(N1CC1)C2=O`
0.0184 µM

Give recorded TGI. `N=C1/C(=C/c2ccc(F)cc2)C(=O)N=C2SC=NN12`
> 100 µM

---

- Tested on: K-562 leukemia
- Experiment: NCI tumour cell line growth inhibition, 48 h; in the data active = GI50 below about 0.43 µM; inactive = the rest
Outcome field: choose from active, inactive

How was `COc1cnc2c(c1)C(=O)c1c-2n(CCCNC(C)C)c(=O)c2cc(Cl)ccc12` classified in this test?
inactive

How was `Cn1c2ccccc2c2c3c(c4c5cc(Br)ccc5n(C)c4c21)C(=O)N(O)C3=O` classified in this test?
active

How was `CC(C)=CC/C=C(/C)[C@H]1CC[C@]2(C)[C@@H]1CC[C@@H]1[C@@]3(C)CCCNC(C)(C)[C@@H]3CC[C@]12C` classified in this test?
inactive

How was Cn1nc(N)c2cc([C@@H]3Nc4ccc5[nH]ncc5c4[C@H]4C5CCC(C5)[C@@H]34)ccc21 (stereo not given in full) classified in this test?
active

How was O=C(OC(CNc1cc(=O)n(Cc2ccccc2)c(=O)n1Cc1ccccc1)CN1CCCC1)c1ccccc1 (stereo not given) classified in this test?
inactive
